We begin with a simple list: items and their reported pEC50.
- Test system: CEM cells HIV-1 protection, formazan growth assay
- Assay Name: NCI AIDS Antiviral Assay
pEC50: −log10 of the molar value.

Compound	pEC50
N#CCCN(CCCN(C(=O)N(c1ccccc1)c1ccccc1)c1ccccc1)C(=O)Nc1ccccc1	< 3.70
COc1ccc(/C(=N/Nc2nc3ccccc3[nH]2)C(=O)O)cc1	< 3.70
Cc1nc(-c2cccnc2)sc1C(=O)/C=C/c1cccc([N+](=O)[O-])c1	< 4.13
COc1ccccc1C1SCC(=O)N1c1ccc(-c2ccc(-n3c(-c4ccccc4)nc4ccccc4c3=O)cc2)cc1 (stereo not given)	< 3.70

Now consider a different compound.
// lookup pEC50 for CC(C)(C)C(=O)OCC1OC(N=[N+]=[N-])C(OC(=O)C(C)(C)C)C(OC(=O)C(C)(C)C)C1OC(=O)C(C)(C)C (stereo not given)
< 3.70

Taken from PubChem BioAssay AID179.
